- method_notes: Timed organ biodistribution of [^64Cu]Cu-DOTATATE by ex vivo gamma counting
- Type: in vivo, mice
- conditions: mouse, liver, intravenous, 1.85 MBq, total radioactivity; female Apoe^-/- mice 12 weeks on Western Diet, 5 min after injection, median (IQR), N=3-8; read-out: Tissue radioactivity, liver

| molecule | tissue uptake at 5 min |
| --- | --- |
| C[C@@H](O)[C@H](NC(=O)[C@@H]1CSSC[C@H](NC(=O)[C@@H](Cc2ccccc2)NC(=O)CN2CCN(CC(=O)O)CCN(CC(=O)O)CCN(CC(=O)O)CC2)C(=O)N[C@@H](Cc2ccc(O)cc2)C(=O)N[C@H](Cc2c[nH]c3ccccc23)C(=O)N[C@@H](CCCCN)C(=O)N[C@@H]([C@@H](C)O)C(=O)N1)C(=O)O [[^64Cu]Cu-DOTATATE, metal not drawn] | 4.9 %ID/g |

###

- method_notes: Timed organ biodistribution of [^64Cu]Cu-DOTATATE by ex vivo gamma counting
- Type: in vivo, mice
- conditions: mouse, bladder, intravenous, 1.85 MBq, total radioactivity; female Apoe^-/- mice 12 weeks on Western Diet, 15 min after injection, median (IQR), N=3-8; read-out: Tissue radioactivity, bladder

| molecule | readout_units | tissue uptake at 0.25 h |
| --- | --- | --- |
| C[C@@H](O)[C@H](NC(=O)[C@@H]1CSSC[C@H](NC(=O)[C@@H](Cc2ccccc2)NC(=O)CN2CCN(CC(=O)O)CCN(CC(=O)O)CCN(CC(=O)O)CC2)C(=O)N[C@@H](Cc2ccc(O)cc2)C(=O)N[C@H](Cc2c[nH]c3ccccc23)C(=O)N[C@@H](CCCCN)C(=O)N[C@@H]([C@@H](C)O)C(=O)N1)C(=O)O [[^64Cu]Cu-DOTATATE, metal not drawn] | %ID/g | 38.9 |

###

- method_notes: Timed organ biodistribution of [^64Cu]Cu-DOTATATE by ex vivo gamma counting
- Format: in vivo, mice
- conditions: mouse, lungs, intravenous, 1.85 MBq, total radioactivity; female Apoe^-/- mice 12 weeks on Western Diet, 120 min after injection, median (IQR), N=3-8; read-out: Tissue radioactivity, lungs

| compound | tissue uptake at 2 h, %ID/g |
| --- | --- |
| C[C@@H](O)[C@H](NC(=O)[C@@H]1CSSC[C@H](NC(=O)[C@@H](Cc2ccccc2)NC(=O)CN2CCN(CC(=O)O)CCN(CC(=O)O)CCN(CC(=O)O)CC2)C(=O)N[C@@H](Cc2ccc(O)cc2)C(=O)N[C@H](Cc2c[nH]c3ccccc23)C(=O)N[C@@H](CCCCN)C(=O)N[C@@H]([C@@H](C)O)C(=O)N1)C(=O)O [[^64Cu]Cu-DOTATATE, metal not drawn] | 2.8 |

###

- method_notes: Timed organ biodistribution of [^64Cu]Cu-DOTATATE by ex vivo gamma counting
- Format: in vivo, mice
- conditions: mouse, muscle, intravenous, 1.85 MBq, total radioactivity; female Apoe^-/- mice 12 weeks on Western Diet, 60 min after injection, median (IQR), N=3-8; read-out: Tissue radioactivity, muscle
measurement_kind: tissue uptake at 1 h (%ID/g)

| compound | meas_value |
| --- | --- |
| C[C@@H](O)[C@H](NC(=O)[C@@H]1CSSC[C@H](NC(=O)[C@@H](Cc2ccccc2)NC(=O)CN2CCN(CC(=O)O)CCN(CC(=O)O)CCN(CC(=O)O)CC2)C(=O)N[C@@H](Cc2ccc(O)cc2)C(=O)N[C@H](Cc2c[nH]c3ccccc23)C(=O)N[C@@H](CCCCN)C(=O)N[C@@H]([C@@H](C)O)C(=O)N1)C(=O)O [[^64Cu]Cu-DOTATATE, metal not drawn] | 0.4 |

###

- method_notes: Timed organ biodistribution of [^64Cu]Cu-DOTATATE by ex vivo gamma counting
- Type: in vivo, mice
- conditions: mouse, fat, intravenous, 1.85 MBq, total radioactivity; female C57BL/6 mice, 5 min after injection, median (IQR), N=3-7; read-out: Tissue radioactivity, fat
- Experimental: Wild-type and atherosclerotic animals were injected with approximately 1.85 MBq of [^64Cu]Cu-DOTATATE and euthanized at either 1, 5, 15, 30, 60 or 120 min after injection (Supplementary Fig. S1A) to evaluate the tracer’s biodistribution. […] Values were corrected for decay and normalized to tissue weight to express radioactivity concentration as percentage injected dose per gram (%ID/g). […] Plasma (supernatant) and cells (pellet) were gamma counted and expressed as percentage of total activity. […]

| compound | tissue uptake at 5 min |
| --- | --- |
| C[C@@H](O)[C@H](NC(=O)[C@@H]1CSSC[C@H](NC(=O)[C@@H](Cc2ccccc2)NC(=O)CN2CCN(CC(=O)O)CCN(CC(=O)O)CCN(CC(=O)O)CC2)C(=O)N[C@@H](Cc2ccc(O)cc2)C(=O)N[C@H](Cc2c[nH]c3ccccc23)C(=O)N[C@@H](CCCCN)C(=O)N[C@@H]([C@@H](C)O)C(=O)N1)C(=O)O [[^64Cu]Cu-DOTATATE, metal not drawn] | 1.3 %ID/g |

###

- method_notes: Timed organ biodistribution of [^64Cu]Cu-DOTATATE by ex vivo gamma counting
- Assay type: in vivo, mice
- conditions: mouse, stomach, intravenous, 1.85 MBq, total radioactivity; female Apoe^-/- mice 12 weeks on Western Diet, 5 min after injection, median (IQR), N=3-8; read-out: Tissue radioactivity, stomach

| compound | tissue uptake at 5 min / %ID/g |
| --- | --- |
| C[C@@H](O)[C@H](NC(=O)[C@@H]1CSSC[C@H](NC(=O)[C@@H](Cc2ccccc2)NC(=O)CN2CCN(CC(=O)O)CCN(CC(=O)O)CCN(CC(=O)O)CC2)C(=O)N[C@@H](Cc2ccc(O)cc2)C(=O)N[C@H](Cc2c[nH]c3ccccc23)C(=O)N[C@@H](CCCCN)C(=O)N[C@@H]([C@@H](C)O)C(=O)N1)C(=O)O [[^64Cu]Cu-DOTATATE, metal not drawn] | 2.4 |

###

- method_notes: Timed organ biodistribution of [^64Cu]Cu-DOTATATE by ex vivo gamma counting
- Assay type: in vivo, mice
- conditions: mouse, large intestine, intravenous, 1.85 MBq, total radioactivity; female C57BL/6 mice, 5 min after injection, median (IQR), N=3-7; read-out: Tissue radioactivity, large intestine
- Method: Wild-type and atherosclerotic animals were injected with approximately 1.85 MBq of [^64Cu]Cu-DOTATATE and euthanized at either 1, 5, 15, 30, 60 or 120 min after injection (Supplementary Fig. S1A) to evaluate the tracer’s biodistribution. […] Values were corrected for decay and normalized to tissue weight to express radioactivity concentration as percentage injected dose per gram (%ID/g). […] Plasma (supernatant) and cells (pellet) were gamma counted and expressed as percentage of total activity. […]
measurement_kind: tissue uptake at 5 min (%ID/g)

| molecule | measurement_kind | readout_units | meas_value |
| --- | --- | --- | --- |
| C[C@@H](O)[C@H](NC(=O)[C@@H]1CSSC[C@H](NC(=O)[C@@H](Cc2ccccc2)NC(=O)CN2CCN(CC(=O)O)CCN(CC(=O)O)CCN(CC(=O)O)CC2)C(=O)N[C@@H](Cc2ccc(O)cc2)C(=O)N[C@H](Cc2c[nH]c3ccccc23)C(=O)N[C@@H](CCCCN)C(=O)N[C@@H]([C@@H](C)O)C(=O)N1)C(=O)O [[^64Cu]Cu-DOTATATE, metal not drawn] | tissue uptake at 5 min | %ID/g | 1.6 |

###

- method_notes: Timed organ biodistribution of [^64Cu]Cu-DOTATATE by ex vivo gamma counting
- Assay type: in vivo, mice
- conditions: mouse, muscle, intravenous, 1.85 MBq, total radioactivity; female C57BL/6 mice, 5 min after injection, median (IQR), N=3-7; read-out: Tissue radioactivity, muscle
measurement_kind: tissue uptake at 5 min (%ID/g)

| compound | measurement_kind | meas_value |
| --- | --- | --- |
| C[C@@H](O)[C@H](NC(=O)[C@@H]1CSSC[C@H](NC(=O)[C@@H](Cc2ccccc2)NC(=O)CN2CCN(CC(=O)O)CCN(CC(=O)O)CCN(CC(=O)O)CC2)C(=O)N[C@@H](Cc2ccc(O)cc2)C(=O)N[C@H](Cc2c[nH]c3ccccc23)C(=O)N[C@@H](CCCCN)C(=O)N[C@@H]([C@@H](C)O)C(=O)N1)C(=O)O [[^64Cu]Cu-DOTATATE, metal not drawn] | tissue uptake at 5 min | 1.6 |

###

- method_notes: Timed organ biodistribution of [^64Cu]Cu-DOTATATE by ex vivo gamma counting
- Type: in vivo, mice
- conditions: mouse, spleen, intravenous, 1.85 MBq, total radioactivity; female Apoe^-/- mice 12 weeks on Western Diet, 5 min after injection, median (IQR), N=3-8; read-out: Tissue radioactivity, spleen

| compound | readout_units | tissue uptake at 5 min |
| --- | --- | --- |
| C[C@@H](O)[C@H](NC(=O)[C@@H]1CSSC[C@H](NC(=O)[C@@H](Cc2ccccc2)NC(=O)CN2CCN(CC(=O)O)CCN(CC(=O)O)CCN(CC(=O)O)CC2)C(=O)N[C@@H](Cc2ccc(O)cc2)C(=O)N[C@H](Cc2c[nH]c3ccccc23)C(=O)N[C@@H](CCCCN)C(=O)N[C@@H]([C@@H](C)O)C(=O)N1)C(=O)O [[^64Cu]Cu-DOTATATE, metal not drawn] | %ID/g | 1.1 |

All values here come from paper PMC9007951.
